- Tested on: HIV-2 ROD
- experiment-description: anti-HIV replication assay, HIV-2 ROD in MT-4 cells (MTS/PES viability readout)
- Format: cell-based
- conditions-used: Human immunodeficiency virus 2, MT4, 120 h; HIV-2 ROD replication in MT-4 cells, five days; read-out: IC50 HIV-2
readout: IC50 (nM)
Report as a plain number; the unit nM is understood.

Ask: Could you share what IC50 was measured for c1cc(CN2CCCNCCNCCCNCC2)ccc1CN1CCCNCCNCCCNCC1 [AMD3100, reference compound] , tested on HIV-2 ROD?
Reply: 7.5

###

In this section we review reported CC50 at 5 days values for a set of compounds.
- experiment-description: cellular toxicity in uninfected MT-4 cells (MTS method)
- Assay type: cell-based
- conditions-used: human
Report as a plain number; the unit µM is understood.

Before answering, review these 3 worked examples.
cpd-smiles	unit-annotation	number
CC(=O)O[C@@]12[C@H](OC(=O)c3ccccc3)[C@@H](C)[C@]3(O)[C@@H]4C=C(C)C(=O)[C@@H]4CC(C)=C[C@H]3[C@@H]1C2(C)C	µM	42
CC(=O)O[C@@H]1[C@@H](C)[C@]2(O)[C@@H]3C=C(C)C(=O)[C@@H]3CC(C)=C[C@H]2[C@@H]2C(C)(C)[C@]12OC(=O)CC(C)C	µM	52
CC(=O)O[C@@]12[C@H](OC(=O)c3ccccc3)[C@@H](C)[C@]3(O)[C@@H]4C=C(C)C(=O)[C@H]4CC(C)=C[C@H]3[C@@H]1C2(C)C	µM	94

Ask: Field request: CC50 at 5 days | item: `CC1=C[C@H]2[C@@H]3C(C)(C)[C@]3(OC(=O)CC(C)C)[C@H](OC(=O)c3ccccc3)[C@@H](C)[C@]2(O)[C@@H]2C=C(C)C(=O)[C@@H]2C1`
Reply: 17.6

Ask: `CC(=O)OCC1=C[C@H]2[C@@H]3C(C)(C)[C@]3(OC(C)=O)[C@H](OC(=O)c3ccccc3)[C@@H](C)[C@]2(O)[C@@H]2C=C(C)C(=O)[C@@H]2C1` ?
Reply: 20.8

Ask: `CC(=O)O[C@@H]1[C@@H](C)[C@]2(O)[C@@H]3C=C(C)C(=O)[C@@H]3CC(C)=C[C@H]2[C@@H]2C(C)(C)[C@]12OC(=O)C(C)C` ?
Reply: 101

Ask: `CC1=C[C@H]2[C@@H]3C(C)(C)[C@]3(OC(=O)C(C)C)[C@H](OC(=O)c3ccccc3)[C@@H](C)[C@]2(O)[C@@H]2C=C(C)C(=O)[C@@H]2C1` ?
Reply: 33.5

###

- Test system: HIV-2 ROD
- experiment-description: anti-HIV replication assay, HIV-2 ROD in MT-4 cells (MTS/PES viability readout)
- Type: cell-based
- conditions-used: Human immunodeficiency virus 2, MT4, 120 h, read-out: IC50 HIV-2
- Experimental: The MT-4 cell line was a kind gift from Dr. L. Montagner (at that time at the Pasteur Institute; Paris, France). […] To determine the anti-HIV-activity of the compounds, MT-4 cells (5 × 10^4 cells) were treated with 5-fold dilutions of the compounds for 30 min at 37 °C, 5% CO2 in 96-well-plates. […] The IC50-values were calculated based on the absorbance signals measured in the negative (i.e., untreated and uninfected cells) and positive (i.e., untreated virus-infected cells) control samples.
readout: pIC50
As a rule, pIC50 stands for the negative log10 of the concentration, concentration in M.

Before answering, review these 4 worked examples.
molecule	number
C[C@H](Cn1cnc2c(N)ncnc21)OCP(=O)(O)O [PMPA, reference compound]	6.15
CC(=O)O[C@@]12[C@H](OC(=O)c3ccccc3)[C@@H](C)[C@]3(O)[C@@H]4C=C(C)C(=O)[C@@H]4CC(C)=C[C@H]3[C@@H]1C2(C)C [Compound 1]	5.03
CC(=O)OCC1=C[C@H]2[C@@H]3C(C)(C)[C@]3(OC(C)=O)[C@H](OC(=O)c3ccccc3)[C@@H](C)[C@]2(O)[C@@H]2C=C(C)C(=O)[C@@H]2C1 [Compound 8]	5.96
CC1=C[C@H]2[C@@H]3C(C)(C)[C@]3(OC(=O)C(C)C)[C@H](OC(=O)c3ccccc3)[C@@H](C)[C@]2(O)[C@@H]2C=C(C)C(=O)[C@@H]2C1 [Compound 5]	5.34

Ask: Field request: pIC50 | item: CC(=O)O[C@@]12[C@H](OC(=O)c3ccccc3)[C@@H](C)[C@]3(O)[C@@H]4C=C(C)C(=O)[C@H]4CC(C)=C[C@H]3[C@@H]1C2(C)C [Compound 2]
Reply: 5.77

###

In this section we review reported pIC50 values for a set of compounds.
- System: HIV-1 NL4.3
- experiment-description: anti-HIV replication assay, HIV-1 NL4.3 in MT-4 cells (MTS/PES viability readout)
- Type: cell-based
- conditions-used: Human immunodeficiency virus 1, MT4, 120 h, read-out: IC50 HIV-1
pIC50: −log10 of the molar value.

Before answering, review these 5 worked examples.
compound	experimental-system	result
CC(=O)O[C@@]12[C@H](OC(=O)c3ccccc3)[C@@H](C)[C@]3(O)[C@@H]4C=C(C)C(=O)[C@H]4CC(C)=C[C@H]3[C@@H]1C2(C)C	HIV-1 NL4.3	5.12
CC(=O)OCC1=C[C@H]2[C@@H]3C(C)(C)[C@]3(OC(C)=O)[C@H](OC(=O)c3ccccc3)[C@@H](C)[C@]2(O)[C@@H]2C=C(C)C(=O)[C@@H]2C1	HIV-1 NL4.3	5.48
CC(=O)O[C@@]12[C@H](OC(=O)c3ccccc3)[C@@H](C)[C@]3(O)[C@@H]4C=C(C)C(=O)[C@@H]4CC(C)=C[C@H]3[C@@H]1C2(C)C	HIV-1 NL4.3	< 4.38
CC(=O)O[C@@H]1[C@@H](C)[C@]2(O)[C@@H]3C=C(C)C(=O)[C@@H]3CC(C)=C[C@H]2[C@@H]2C(C)(C)[C@]12OC(=O)CC(C)C	HIV-1 NL4.3	< 4.28
CC1=C[C@H]2[C@@H]3C(C)(C)[C@]3(OC(=O)CC(C)C)[C@H](OC(=O)c3ccccc3)[C@@H](C)[C@]2(O)[C@@H]2C=C(C)C(=O)[C@@H]2C1	HIV-1 NL4.3	< 4.74

Ask: Could you share what pIC50 was measured for C[C@H](Cn1cnc2c(N)ncnc21)OCP(=O)(O)O [PMPA, reference compound] , tested on HIV-1 NL4.3?
Reply: 5.62

Ask: `CC1=C[C@H]2[C@@H]3C(C)(C)[C@]3(OC(=O)C(C)C)[C@H](OC(=O)c3ccccc3)[C@@H](C)[C@]2(O)[C@@H]2C=C(C)C(=O)[C@@H]2C1` ?
Reply: < 4.47

Ask: `CC(=O)O[C@@H]1[C@@H](C)[C@]2(O)[C@@H]3C=C(C)C(=O)[C@@H]3CC(C)=C[C@H]2[C@@H]2C(C)(C)[C@]12OC(=O)C(C)C` ?
Reply: < 4.00

###

- Tested on: HIV-2 ROD
- experiment-description: anti-HIV replication assay, HIV-2 ROD in MT-4 cells (MTS/PES viability readout)
- Format: cell-based
- conditions-used: Human immunodeficiency virus 2, MT4, 120 h, read-out: IC50 HIV-2
readout: IC50

Before answering, review these 2 worked examples.
compound	IC50
CC(=O)O[C@@H]1[C@@H](C)[C@]2(O)[C@@H]3C=C(C)C(=O)[C@@H]3CC(C)=C[C@H]2[C@@H]2C(C)(C)[C@]12OC(=O)C(C)C [Compound 6]	> 101 µM
CC(=O)O[C@@H]1[C@@H](C)[C@]2(O)[C@@H]3C=C(C)C(=O)[C@@H]3CC(C)=C[C@H]2[C@@H]2C(C)(C)[C@]12OC(=O)CC(C)C [Compound 4]	> 52 µM

Please find the next compound below.
Ask: Field request: IC50 | item: CC1=C[C@H]2[C@@H]3C(C)(C)[C@]3(OC(=O)CC(C)C)[C@H](OC(=O)c3ccccc3)[C@@H](C)[C@]2(O)[C@@H]2C=C(C)C(=O)[C@@H]2C1 [Compound 3]
Reply: > 18 µM

Entry source: paper PMC11990108
